What 48 h IGC50 (-log10 mol/L) was measured for each of the following?
test system: Tetrahymena pyriformis; assay: 48 h IGC50 (-log10 mol/L); higher = more toxic
Number only, no unit.

Recorded 48 h IGC50 (-log10 mol/L) for N#CCC(=O)OC1CCCCC1 , please?
2.91

Recorded 48 h IGC50 (-log10 mol/L) for O=Cc1ccc(-c2ccccc2)cc1 , please?
4.12

Recorded 48 h IGC50 (-log10 mol/L) for CCCSc1ccccc1 , please?
3.86

Recorded 48 h IGC50 (-log10 mol/L) for C=CC=O , please?
4.89

Recorded 48 h IGC50 (-log10 mol/L) for Cc1cc2ccccc2n1C , please?
3.84

Recorded 48 h IGC50 (-log10 mol/L) for CCOC(=O)CCCCCCCCC(=O)OCC , please?
4.35

Recorded 48 h IGC50 (-log10 mol/L) for OCc1cccc(F)c1 , please?
2.61

Recorded 48 h IGC50 (-log10 mol/L) for CCCCC#CCCO , please?
3.02

Recorded 48 h IGC50 (-log10 mol/L) for Cc1ccc(O)c([N+](=O)[O-])c1 , please?
3.57

Recorded 48 h IGC50 (-log10 mol/L) for Cc1cccc(C=O)c1 , please?
3.08

Recorded 48 h IGC50 (-log10 mol/L) for O=C1C=CC(=O)c2c(O)ccc(O)c21 , please?
5.83

Recorded 48 h IGC50 (-log10 mol/L) for COC(=O)C(C)(C)C , please?
1.72

Recorded 48 h IGC50 (-log10 mol/L) for Oc1ccc(Br)cc1 , please?
3.68

Recorded 48 h IGC50 (-log10 mol/L) for O=[N+]([O-])c1ccc(CO)cc1 , please?
3.12

Recorded 48 h IGC50 (-log10 mol/L) for N#Cc1cccc(C=O)c1 , please?
2.98

Recorded 48 h IGC50 (-log10 mol/L) for CC(CN)c1ccccc1 (stereo unspecified) , please?
2.72

Recorded 48 h IGC50 (-log10 mol/L) for N#Cc1ccc(Cl)c([N+](=O)[O-])c1 , please?
4.71

Recorded 48 h IGC50 (-log10 mol/L) for CCC(=O)NC , please?
1.47

Recorded 48 h IGC50 (-log10 mol/L) for Cc1cc(O)c(C(C)C)cc1Cl , please?
4.85

Recorded 48 h IGC50 (-log10 mol/L) for CCCCCCCCCCO , please?
4.33

Recorded 48 h IGC50 (-log10 mol/L) for CCCCCC(O)CC (stereo unspecified) , please?
2.94

Recorded 48 h IGC50 (-log10 mol/L) for C=CCC(O)C=C (stereo unspecified) , please?
3.25

Recorded 48 h IGC50 (-log10 mol/L) for OCC(c1ccccc1)c1ccccc1 , please?
3.65

Recorded 48 h IGC50 (-log10 mol/L) for OCc1ccccc1Br , please?
3.1

Recorded 48 h IGC50 (-log10 mol/L) for Nc1ccc(F)cc1C(F)(F)F , please?
2.98

Recorded 48 h IGC50 (-log10 mol/L) for NC(=O)c1cccc([N+](=O)[O-])c1 , please?
2.81

Recorded 48 h IGC50 (-log10 mol/L) for Cc1ccccc1 , please?
3.25

Recorded 48 h IGC50 (-log10 mol/L) for CCOC(=O)C(Br)C(=O)OCC , please?
5.21

Recorded 48 h IGC50 (-log10 mol/L) for Cc1c(C)c(O)c(C)c(C)c1O , please?
4.28

Recorded 48 h IGC50 (-log10 mol/L) for CC(C)(C)C#N , please?
1.68

Recorded 48 h IGC50 (-log10 mol/L) for NC(CO)CO , please?
1.32

Recorded 48 h IGC50 (-log10 mol/L) for C#CCC(O)CC (stereo unspecified) , please?
1.6

Recorded 48 h IGC50 (-log10 mol/L) for Oc1cc(O)c(Cl)cc1Cl , please?
3.97

Recorded 48 h IGC50 (-log10 mol/L) for C=CCC(C)O (stereo unspecified) , please?
1.48

Recorded 48 h IGC50 (-log10 mol/L) for Fc1nc(F)c(F)c(Br)c1F , please?
2.87

Recorded 48 h IGC50 (-log10 mol/L) for Oc1ccc(O)c(Br)c1 , please?
4.68

Recorded 48 h IGC50 (-log10 mol/L) for CC(=O)c1cc(C)ccc1O , please?
3.31

Recorded 48 h IGC50 (-log10 mol/L) for CC(C)C(C)O (stereo unspecified) , please?
2

Recorded 48 h IGC50 (-log10 mol/L) for OCCCCCCBr , please?
3.01

Recorded 48 h IGC50 (-log10 mol/L) for CC(C)(O)C#CC(C)(C)O , please?
1.42

Recorded 48 h IGC50 (-log10 mol/L) for Cc1ccc2ccccc2c1[N+](=O)[O-] , please?
4.04

Recorded 48 h IGC50 (-log10 mol/L) for C=CC(=O)OCCCCC , please?
3.54

Recorded 48 h IGC50 (-log10 mol/L) for C=CCSc1ccccc1 , please?
3.69

Recorded 48 h IGC50 (-log10 mol/L) for NC(=O)c1ccc([N+](=O)[O-])cc1 , please?
3.18

Recorded 48 h IGC50 (-log10 mol/L) for Clc1cccc2ccccc12 , please?
3.81

Recorded 48 h IGC50 (-log10 mol/L) for CCCCC(=O)Cl , please?
2.65

Recorded 48 h IGC50 (-log10 mol/L) for CCCOC(=O)c1ccccc1 , please?
3.42

Recorded 48 h IGC50 (-log10 mol/L) for CCCCCC1CCCC(=O)O1 (stereo unspecified) , please?
2.92

Recorded 48 h IGC50 (-log10 mol/L) for Cc1cnccn1 , please?
1.91

Recorded 48 h IGC50 (-log10 mol/L) for Nc1cccc(I)c1 , please?
3.65

Recorded 48 h IGC50 (-log10 mol/L) for CC(O)CCO (stereo unspecified) , please?
0.699

Recorded 48 h IGC50 (-log10 mol/L) for ClCC=CCCl , please?
4.02

Recorded 48 h IGC50 (-log10 mol/L) for CC(C)(C)N , please?
2.1

Recorded 48 h IGC50 (-log10 mol/L) for CCCCC(CC)CO (stereo unspecified) , please?
3.17

Recorded 48 h IGC50 (-log10 mol/L) for CCOC(=O)CBr , please?
5.68

Recorded 48 h IGC50 (-log10 mol/L) for Brc1ccsc1 , please?
2.96
